Target: Cathepsin S (UniProt P25774)
Assay: Cathepsin enzyme inhibition assay (fluorogenic peptide substrate Z-Val-Val-Arg-AMC), Cathepsin S
Type: biochemical, human and mouse
Settings: enzyme 1 nM, substrate 20 μM, pH 6.5; read-out: CatS IC50
Would you kindly list pIC50 for each of these molecules?
Note on pIC50: it is the negative log10 of concentration, concentration in mol/L.

**Q:** State the recorded pIC50 for this entry: `CC(C)N1CCN(c2ccc(S(=O)(=O)[C@@H]3C[C@@H](C(=O)NC4(C#N)CC4)N(C(=O)C4(c5ccc(Cl)nc5)CC4)C3)c(Cl)c2)CC1`
**A:** 10.15

**Q:** Lookup `Cc1cc(N2C[C@H](S(=O)(=O)c3ccccc3C(F)(F)F)C[C@H]2C(=O)NC2(C#N)CC2)n(Cc2ccccc2)n1`
**A:** 8.84

**Q:** Lookup `Cc1csc(C2(C(=O)N3C[C@H](S(=O)(=O)c4ccccc4Cl)C[C@H]3C(=O)NC3(C#N)CC3)CC2)n1`
**A:** 9.51

**Q:** Lookup `Cc1cc(N2C[C@H](S(=O)(=O)c3ccccc3C(F)(F)F)C[C@H]2C(=O)NC2(C#N)CC2)n(CCc2ccccc2)n1`
**A:** 8.78

**Q:** Lookup `N#CC1(NC(=O)[C@@H]2C[C@@H](S(=O)(=O)c3ccc(N4CCN(C5CC5)CC4)cc3Cl)CN2C(=O)C2(c3ccc(Cl)cc3)CC2)CC1`
**A:** 10.10

**Q:** Lookup `Cc1cc(N2C[C@H](S(=O)(=O)c3ccccc3Cl)C[C@H]2C(=O)NC2(C#N)CC2)n(-c2ccnc(Cl)c2)n1`
**A:** 9.08

###

Target: Cat L (UniProt P07711)
Assay: Cathepsin enzyme inhibition assay (fluorogenic peptide substrate Z-Val-Val-Arg-AMC), Cathepsin L
Assay type: biochemical, human and mouse
Settings: enzyme 1 nM, substrate 20 μM, pH 6.5; read-out: CatL IC50
Reported endpoint: pIC50
Note on pIC50: it is the negative log10 of concentration, concentration in mol/L.

**Q:** State the recorded pIC50 for this entry: `Cc1cc(N2C[C@H](S(=O)(=O)c3ccccc3Cl)C[C@H]2C(=O)NC2(C#N)CC2)n(Cc2cncn2C)n1`
**A:** 5.32

**Q:** Lookup `N#CC1(NC(=O)[C@@H]2C[C@@H](S(=O)(=O)c3ccccc3Cl)CN2C(=O)C2(c3ccc(Cl)cc3Cl)CC2)CC1`
**A:** 7.66

**Q:** Lookup `N#CC1(NC(=O)[C@@H]2C[C@@H](S(=O)(=O)c3ccccc3C(F)(F)F)CN2c2cc(C3CC3)nn2-c2ccc(C(F)(F)F)cc2)CC1`
**A:** 4.97

###

Biological target: Cathepsin S (UniProt P25774)
Assay: Cathepsin enzyme inhibition assay (fluorogenic peptide substrate Z-Val-Val-Arg-AMC), Cathepsin S
Assay type: biochemical, human and mouse
Settings: enzyme 1 nM, substrate 20 μM, pH 6.5; read-out: CatS IC50
pIC50: −log10 of the molar value.
Rule: pIC50 of 9 or more gives True; anything lower gives False.

**Q:** Quick check: does `N#CC1(NC(=O)[C@@H]2C[C@@H](S(=O)(=O)c3ccc(-n4ccc5ncnc-5c4)cc3Cl)CN2C(=O)C2(c3ccc(Cl)cc3)CC2)CC1` have pIC50 greater than or equal to 9?
**A:** True

**Q:** Lookup `Cc1cc(N2C[C@H](S(=O)(=O)c3ccccc3Cl)C[C@H]2C(=O)NC2(C#N)CC2)n(Cc2ccc(Cl)cc2)n1`
**A:** False

**Q:** Lookup `Cc1cc(N2C[C@H](S(=O)(=O)c3ccccc3C(F)(F)F)C[C@H]2C(=O)NC2(C#N)CC2)n(-c2ccn(C(=O)OCC(C)C)c(=O)c2)n1`
**A:** True

**Q:** Lookup CC(C)(C)c1ccccc1N1CC(S(=O)(=O)c2ccccc2C(F)(F)F)CC1C(=O)NC1(C#N)CC1 (stereo not drawn)
**A:** False

**Q:** Lookup `CCN1CCN(c2ccc(S(=O)(=O)[C@@H]3C[C@H](C(=O)NC4(C#N)CC4)N(c4ncccc4C(F)(F)F)C3)c(Cl)c2)CC1`
**A:** False

###

Target: UniProt P25774
Test: Cathepsin enzyme inhibition assay (fluorogenic peptide substrate Z-Val-Val-Arg-AMC), Cathepsin S
Assay type: biochemical, human and mouse
Conditions: enzyme 1 nM, substrate 20 μM, pH 6.5; read-out: CatS IC50
Reported endpoint: IC50 (nM)
Report only the number, with the unit nM understood.

**Q:** State the recorded IC50 for this entry: `CN1CCN(c2ccc(S(=O)(=O)[C@@H]3C[C@@H](C(=O)NC4(C#N)CC4)N(C(=O)C4(C(F)(F)F)CC4)C3)c(C(F)(F)F)c2)CC1`
**A:** 0.245

**Q:** Lookup `N#CC1(NC(=O)[C@@H]2C[C@@H](S(=O)(=O)c3ccc(Cl)cc3Cl)CN2C(=O)C2(c3ccccc3)CC2)CC1`
**A:** 0.2

**Q:** Lookup `CC1(C(=O)N2C[C@H](S(=O)(=O)c3ccc(Cl)cc3Cl)C[C@H]2C(=O)NC2(C#N)CC2)CC1`
**A:** 1.2

###

Would you kindly list IC50 for each of these compounds?
Molecular target: Cathepsin S (UniProt P25774)
Assay: Cathepsin enzyme inhibition assay (fluorogenic peptide substrate Z-Val-Val-Arg-AMC), Cathepsin S
Type: biochemical, human and mouse
Conditions: enzyme 1 nM, substrate 20 μM, pH 6.5; read-out: CatS IC50
Structures can show the parent of a compound that is named as a salt.
Report only the number, with the unit nM understood.

**Q:** State the recorded IC50 for this entry: N#CC1(NC(=O)[C@@H]2C[C@@H](S(=O)(=O)c3ccc(OCC(F)(F)F)cc3Cl)CN2C(=O)C2(c3ccc(Cl)cc3)CC2)CC1 [Example 178]
**A:** 0.16

**Q:** Lookup COc1ccc(S(=O)(=O)[C@@H]2C[C@@H](C(=O)NC3(C#N)CC3)N(C(=O)OC(C)(C)C)C2)c(Cl)c1 [Example 387]
**A:** 6.7

**Q:** Lookup CN1CCN(c2ccc(S(=O)(=O)[C@@H]3C[C@@H](C(=O)NC4(C#N)CC4)N(C(=O)C4(C(F)(F)F)CC4)C3)c(Cl)c2)CC1 [Example 290]
**A:** 0.13

**Q:** Lookup Cc1cc(N2C[C@H](S(=O)(=O)c3ccccc3C(F)(F)F)C[C@H]2C(=O)NC2(C#N)CC2)n(-c2ccnc3ccccc23)n1 [Example 352]
**A:** 0.25

**Q:** Lookup N#CC1(NC(=O)[C@@H]2C[C@@H](S(=O)(=O)Cc3ccccc3)CN2C(=O)C2(c3ccc(Cl)cc3)CC2)CC1 [Example 458]
**A:** 61900

**Q:** Lookup N#CC1(NC(=O)[C@@H]2C[C@@H](S(=O)(=O)c3ccc(OCC(F)(F)F)cc3Cl)CN2C(=O)C2(c3ccc(Br)cc3)CC2)CC1 [Example 273]
**A:** 0.29

**Q:** Lookup N#CC1(NC(=O)[C@@H]2C[C@@H](S(=O)(=O)c3ccc(OCC(F)(F)F)cc3Cl)CN2C(=O)C2(c3cccc(Cl)c3)CC2)CC1 [Example 331]
**A:** 0.18

**Q:** Lookup N#CC1(NC(=O)[C@@H]2C[C@@H](S(=O)(=O)c3ccc(C4CC4)cc3C(F)(F)F)CN2C(=O)C2(C(F)(F)F)CC2)CC1 [Example 256]
**A:** 0.26

**Q:** Lookup CC1(C(=O)N2C[C@H](S(=O)(=O)c3ccc(OCC(F)(F)F)cc3Cl)C[C@H]2C(=O)NC2(C#N)CC2)CC1 [Example 175]
**A:** 0.49

**Q:** Lookup N#CC1(NC(=O)[C@@H]2C[C@@H](S(=O)(=O)c3ccc(-n4ccnc4)cc3)CN2)CC1 [Example 14, Hydrochloride]
**A:** 3.2

**Q:** Lookup CC(C(=O)N1C[C@H](S(=O)(=O)c2ccccc2Cl)C[C@H]1C(=O)NC1(C#N)CC1)c1ccc(Cl)cc1 (stereo partly shown) [Example 430]
**A:** 0.82

**Q:** Lookup CC(C)OC(=O)N1C[C@H](S(=O)(=O)c2ccccc2Cl)C[C@H]1C(=O)NC1(C#N)CC1 [Example 97]
**A:** 2.4

**Q:** Lookup N#CC1(NC(=O)[C@H]2C[C@@H](S(=O)(=O)c3ccc(-n4cccn4)cc3Cl)CN2C(=O)C2(C(F)(F)F)CC2)CC1 [Example 165]
**A:** 110

###

Target: Cathepsin S (UniProt P25774)
Experiment: Cathepsin enzyme inhibition assay (fluorogenic peptide substrate Z-Val-Val-Arg-AMC), Cathepsin S
Format: biochemical, human and mouse
Conditions: enzyme 1 nM, substrate 20 μM, pH 6.5; read-out: CatS IC50
Description: Cathepsin Enzyme Inhibition Assay Enzyme activity is measured by observing the increase in fluorescence intensity caused by cleavage of a peptide substrate containing a fluorophore whose emission is quenched in the intact peptide. Assay buffer: 100 mM potassium phosphate pH 6.5, EDTA-Na 5 mM, Triton X-100 0.001%, DDT 5 mM. […] Enzyme is added to the substance dilutions in 96-well microtitre plates and the reaction is started with substrate. […] IC50 are calculated by standard methods. […]
Counter-ions that a name gives are not always drawn.
Category key, based on recorded IC50: bottom bin: < 0.7 nM; middle bin: ≥ 0.7 nM and < 2 nM; top bin: ≥ 2 nM

**Q:** Lab note: sort Cc1cc(N2C[C@H](S(=O)(=O)c3ccccc3C(F)(F)F)C[C@H]2C(=O)NC2(C#N)CC2)n(C2CCOCC2)n1 [Example 307] into the matching IC50 band.
**A:** bottom bin

**Q:** Lookup CCN1CCN(c2ccc(S(=O)(=O)[C@@H]3C[C@@H](C(=O)NC4(C#N)CC4)N(C(=O)C4(C(F)(F)F)CC4)C3)c(Cl)c2)CC1 [Example 142]
**A:** bottom bin

**Q:** Lookup Cc1cc(N2C[C@H](S(=O)(=O)c3ccc(N4CC(F)(F)C4)cc3Cl)C[C@H]2C(=O)NC2(C#N)CC2)n(C2CCOCC2)n1 [Example 464]
**A:** middle bin

**Q:** Lookup CC(=O)Nc1cccc(-n2nc(C)cc2N2C[C@H](S(=O)(=O)c3ccccc3C(F)(F)F)C[C@@H]2C(=O)NC2(C#N)CC2)c1 [Example 357]
**A:** top bin

**Q:** Lookup CC(C)(C)C(=O)N1C[C@H](S(=O)(=O)c2ccc(Cl)cc2Cl)C[C@H]1C(=O)NC1(C#N)CC1 [Example 225]
**A:** middle bin

**Q:** Lookup Cc1cc(Cl)ccc1S(=O)(=O)[C@H]1CN[C@H](C(=O)NC2(C#N)CC2)C1 [Example 50, Hydrochloride]
**A:** top bin

**Q:** Lookup N#CC1(NC(=O)[C@@H]2C[C@@H](S(=O)(=O)c3ccc(N4CCC(F)(F)C4)cc3Cl)CN2)CC1 [Example 136]
**A:** top bin

**Q:** Lookup N#CC1(NC(=O)[C@@H]2C[C@@H](S(=O)(=O)c3ccc(OCC(F)(F)F)cc3Cl)CN2C(=O)C(F)(F)c2ccccc2)CC1 [Example 251]
**A:** bottom bin

**Q:** Lookup N#CC1(NC(=O)[C@@H]2C[C@@H](S(=O)(=O)c3ccccc3C(F)(F)F)CN2C(=O)CC(F)(F)F)CC1 [Example 206]
**A:** bottom bin

**Q:** Lookup N#CC1(NC(=O)[C@@H]2C[C@@H](S(=O)(=O)c3ccccc3Cl)CN2C(=O)C2(C(F)(F)F)CC2)CC1 [Example 213]
**A:** bottom bin

**Q:** Lookup Cc1cc(N2C[C@H](S(C)(=O)=O)C[C@H]2C(=O)NC2(C#N)CC2)n(-c2ccnc(Cl)c2)n1 [Example 463]
**A:** top bin

**Q:** Lookup N#CC1(NC(=O)[C@@H]2C[C@@H](S(=O)(=O)c3ccccc3Cl)CN2Cc2ccncc2)CC1 [Example 86]
**A:** top bin

**Q:** Lookup Cc1cc(N2C[C@H](S(=O)(=O)c3ccccc3Cl)C[C@H]2C(=O)NC2(C#N)CC2)n(Cc2ccccc2)n1 [Example 379]
**A:** middle bin

**Q:** Lookup N#CC1(NC(=O)[C@@H]2C[C@@H](S(=O)(=O)c3ccccc3Cl)CN2CC(F)F)CC1 [Example 88]
**A:** top bin

**Q:** Lookup N#CC1(NC(=O)[C@@H]2C[C@@H](S(=O)(=O)c3ccccc3C(F)(F)F)CN2C=O)CC1 [Example 100]
**A:** top bin

**Q:** Lookup Cc1cc(N2C[C@H](S(=O)(=O)c3ccccc3C(F)(F)F)C[C@H]2C(=O)NC2(C#N)CC2)n(C)n1 [Example 300]
**A:** middle bin

**Q:** Lookup N#CC1(NC(=O)[C@@H]2C[C@@H](S(=O)(=O)c3ccc(N4CCN(C5CC5)CC4)cc3Cl)CN2C(=O)C2(C(F)(F)F)CC2)CC1 [Example 298]
**A:** bottom bin

**Q:** Lookup N#CC1(NC(=O)[C@@H]2C[C@@H](S(=O)(=O)c3ccccc3Cl)CN2C(=O)C(F)(F)c2ccc(Cl)c(Cl)c2)CC1 [Example 437]
**A:** middle bin

**Q:** Lookup Cc1cc(N2C[C@H](S(=O)(=O)c3ccc(N4CC(F)(F)C4)cc3Cl)C[C@H]2C(=O)NC2(C#N)CC2)n(C2CCC2)n1 [Example 456]
**A:** middle bin

**Q:** Lookup Cc1cc(N2C[C@H](S(=O)(=O)c3ccc(N4CC(F)(F)C4)cc3C(F)(F)F)C[C@H]2C(=O)NC2(C#N)CC2)n(C2CCOCC2)n1 [Example 403]
**A:** bottom bin

**Q:** Lookup N#CC1(NC(=O)[C@@H]2C[C@@H](S(=O)(=O)c3ccc(OCC(F)(F)F)cc3Cl)CN2C(=O)C2(c3ccc(Br)cc3)OCCO2)CC1 [Example 346]
**A:** bottom bin

**Q:** Lookup Cc1cc(N2C[C@H](S(=O)(=O)c3ccc(F)cc3C(F)(F)F)C[C@H]2C(=O)NC2(C#N)CC2)n(-c2ccc(C(F)(F)F)cc2)n1 [Example 267]
**A:** top bin

**Q:** Lookup CC(C)(C)OC(=O)N1C[C@H](S(=O)(=O)c2ccc(-n3cccn3)cc2Cl)C[C@H]1C(=O)NC1(C#N)CC1 [Example 120]
**A:** top bin

**Q:** Lookup Cc1cc(N2C[C@H](S(=O)(=O)c3ccccc3Cl)C[C@H]2C(=O)NC2(C#N)CC2)n(-c2ccc(C(F)(F)F)cc2)n1 [Example 253]
**A:** middle bin

**Q:** Lookup CCN1CCN(c2ccc(S(=O)(=O)[C@H]3CN[C@H](C(=O)NC4(C#N)CC4)C3)c(Cl)c2)CC1 [Example 140]
**A:** top bin

**Q:** Lookup COc1ccc(S(=O)(=O)[C@@H]2C[C@@H](C(=O)NC3(C#N)CC3)N(c3cc(C)nn3Cc3ccccc3)C2)c(Cl)c1 [Example 376]
**A:** bottom bin
